# Measured On: T1, human CD40 (human, UniProt P25942 21-277)
# T1 construct: whole, on cells; also called hCD40; TNFRSF5
# Assay: FACS, Raji cells
Measured Metric: EC50 (nM)
Give your result in nM as a bare value.

PR006496 (antibody, human IgG1, kappa, V domains shown, Variant of PR003379, L: N92F; human IgG1 L234A, L235A, G237A) VH: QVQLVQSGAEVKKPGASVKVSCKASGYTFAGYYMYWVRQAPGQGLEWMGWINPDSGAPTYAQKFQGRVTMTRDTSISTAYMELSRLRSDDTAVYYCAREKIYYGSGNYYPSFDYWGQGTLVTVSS VL: DIQLTQSPSFLSASVGDRVTITCRASQGISSYLAWYQQKPGKAPKLLIYAASTLQSGVPSRFSGSGSGTEFTLTISSLQPEDFATYYCQQLFSYPWTFGQGTKVEIKR : 0.277
PR006495 (antibody, human IgG1, kappa, V domains shown, Variant of PR003379, L: N92A; human IgG1 L234A, L235A, G237A) VH: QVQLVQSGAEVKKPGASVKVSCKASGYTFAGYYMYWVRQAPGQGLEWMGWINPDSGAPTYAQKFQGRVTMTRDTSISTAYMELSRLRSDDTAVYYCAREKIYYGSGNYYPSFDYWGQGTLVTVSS VL: DIQLTQSPSFLSASVGDRVTITCRASQGISSYLAWYQQKPGKAPKLLIYAASTLQSGVPSRFSGSGSGTEFTLTISSLQPEDFATYYCQQLASYPWTFGQGTKVEIKR : 0.356

// below: EC50 requested for another binder
Q. Given PR006497 (antibody, human IgG1, kappa, V domains shown, Variant of PR003379, L: N92Y; human IgG1 L234A, L235A, G237A) VH: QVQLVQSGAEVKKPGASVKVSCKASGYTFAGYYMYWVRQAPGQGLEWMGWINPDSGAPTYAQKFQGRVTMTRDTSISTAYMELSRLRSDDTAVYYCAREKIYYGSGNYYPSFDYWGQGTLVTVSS VL: DIQLTQSPSFLSASVGDRVTITCRASQGISSYLAWYQQKPGKAPKLLIYAASTLQSGVPSRFSGSGSGTEFTLTISSLQPEDFATYYCQQLYSYPWTFGQGTKVEIKR , state its recorded EC50.
A. 0.252
